Reference for the values: patent US9572891B2

# assayed.system: telomerase (Homo sapiens, UniProt O14746)
# Construct: made in house; host or cells: 293 cells over-expressing hTERT
# Sequence (O14746 whole entry): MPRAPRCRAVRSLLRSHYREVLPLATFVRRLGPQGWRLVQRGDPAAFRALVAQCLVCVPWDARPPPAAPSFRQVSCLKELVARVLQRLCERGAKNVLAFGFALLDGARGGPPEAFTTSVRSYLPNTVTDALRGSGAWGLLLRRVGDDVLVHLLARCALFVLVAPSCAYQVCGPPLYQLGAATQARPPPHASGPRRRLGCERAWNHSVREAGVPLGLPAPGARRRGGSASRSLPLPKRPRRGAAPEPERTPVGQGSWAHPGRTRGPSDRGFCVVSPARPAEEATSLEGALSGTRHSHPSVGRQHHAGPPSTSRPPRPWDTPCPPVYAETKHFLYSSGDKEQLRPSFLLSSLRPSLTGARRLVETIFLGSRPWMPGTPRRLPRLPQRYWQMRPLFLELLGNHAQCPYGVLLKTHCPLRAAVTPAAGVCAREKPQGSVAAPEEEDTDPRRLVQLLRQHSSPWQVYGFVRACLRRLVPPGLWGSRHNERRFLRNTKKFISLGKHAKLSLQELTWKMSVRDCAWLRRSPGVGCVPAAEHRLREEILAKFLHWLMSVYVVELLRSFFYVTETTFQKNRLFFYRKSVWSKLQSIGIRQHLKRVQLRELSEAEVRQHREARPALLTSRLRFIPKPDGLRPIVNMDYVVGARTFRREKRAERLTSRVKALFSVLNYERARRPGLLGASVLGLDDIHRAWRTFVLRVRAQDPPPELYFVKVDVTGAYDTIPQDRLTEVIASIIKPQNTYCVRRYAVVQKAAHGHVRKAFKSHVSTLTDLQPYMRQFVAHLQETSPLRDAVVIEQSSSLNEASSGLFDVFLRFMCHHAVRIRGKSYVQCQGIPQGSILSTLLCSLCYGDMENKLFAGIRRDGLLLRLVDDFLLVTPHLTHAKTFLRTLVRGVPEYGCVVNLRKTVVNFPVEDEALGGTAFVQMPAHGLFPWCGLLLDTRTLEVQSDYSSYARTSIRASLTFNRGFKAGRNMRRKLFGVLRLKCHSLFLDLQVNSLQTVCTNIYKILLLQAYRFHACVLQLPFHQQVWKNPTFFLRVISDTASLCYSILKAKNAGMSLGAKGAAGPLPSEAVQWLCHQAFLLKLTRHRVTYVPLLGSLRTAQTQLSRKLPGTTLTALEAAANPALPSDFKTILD
# Sequence (O60832 whole entry partner): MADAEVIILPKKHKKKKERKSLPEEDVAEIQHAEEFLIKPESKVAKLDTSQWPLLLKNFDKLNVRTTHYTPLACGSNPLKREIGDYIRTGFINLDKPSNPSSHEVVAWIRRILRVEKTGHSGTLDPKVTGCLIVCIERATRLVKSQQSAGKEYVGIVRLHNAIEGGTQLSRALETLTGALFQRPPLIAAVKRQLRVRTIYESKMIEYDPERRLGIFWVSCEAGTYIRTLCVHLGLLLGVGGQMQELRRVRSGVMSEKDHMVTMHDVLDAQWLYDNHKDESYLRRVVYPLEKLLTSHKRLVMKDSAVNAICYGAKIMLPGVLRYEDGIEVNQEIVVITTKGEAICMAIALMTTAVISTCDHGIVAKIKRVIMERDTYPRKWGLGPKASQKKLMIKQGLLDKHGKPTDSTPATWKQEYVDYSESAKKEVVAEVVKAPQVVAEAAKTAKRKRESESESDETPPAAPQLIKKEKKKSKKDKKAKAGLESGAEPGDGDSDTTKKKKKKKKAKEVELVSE
# Sequence (Q9NPE3 whole entry partner): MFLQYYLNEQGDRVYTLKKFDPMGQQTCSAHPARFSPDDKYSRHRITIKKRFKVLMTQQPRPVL
# Sequence (Q9NX24 whole entry partner): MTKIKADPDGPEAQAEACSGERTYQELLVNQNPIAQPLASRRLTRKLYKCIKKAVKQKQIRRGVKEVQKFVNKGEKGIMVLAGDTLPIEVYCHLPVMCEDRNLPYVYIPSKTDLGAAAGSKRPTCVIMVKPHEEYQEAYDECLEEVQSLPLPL
# Sequence (Q9NY12 whole entry partner): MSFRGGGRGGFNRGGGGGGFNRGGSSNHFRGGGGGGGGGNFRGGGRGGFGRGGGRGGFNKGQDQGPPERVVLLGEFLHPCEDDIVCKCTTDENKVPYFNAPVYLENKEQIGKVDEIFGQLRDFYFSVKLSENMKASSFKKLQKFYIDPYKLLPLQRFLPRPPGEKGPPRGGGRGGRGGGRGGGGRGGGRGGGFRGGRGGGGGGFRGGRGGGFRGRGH
# run.description: Bio-Tel FlashPlate telomerase inhibition assay
# Type: biochemical
# measurement.parameters: Table 1; oligonucleotide has N3′→P5′ phosphoramidate (NP) internucleoside linkages; read-out: IC50 NP
pIC50: −log10 of the molar value.
experimental.endpoint: pIC50

>>> measurement("GTTAGG (unconjugated): unconjugated oligonucleotide GTTAGG (SEQ ID: 7), NP and NPS forms")
6.33
>>> measurement("GGGTTAG (unconjugated): unconjugated oligonucleotide GGGTTAG (SEQ ID: 6), tested with NP and with NPS internucleoside linkages")
6.22
>>> measurement("TTAGGG (unconjugated): unconjugated oligonucleotide TTAGGG (SEQ ID: 8), NP and NPS forms")
4.96
